Test system: 786-0 renal
Assay: NCI tumour cell line growth inhibition, 48 h; in the data active means GI50 below about 0.43 µM; inactive means the rest
# output must be one of TRUE for active, FALSE for inactive

C=C1C(=O)O[C@H]2[C@H]1CC/C(COC(=O)C(=O)c1c[nH]c3ccc(OC)cc13)=C\CC[C@@]1(C)O[C@@H]21 | FALSE
Nc1ccn([C@H]2C[C@@H](O)[C@@H](CO)S2)c(=O)n1 | FALSE
COc1cc2c3c(n(CCCN4CCN(C)CC4)c(=O)c2cc1OC)-c1cc2c(cc1C3=O)OCO2 | FALSE
O=C1C(Cl)=C(Nc2ccc3cn[nH]c3c2)C(=O)c2ccccc21 | FALSE
NC1=NC(c2ccccc2)N=C(Nc2ccccc2)N1 (stereo unspecified) | FALSE

Turning to the following compound.
Just curious, what result did CCC(=O)OC1CCn2c1nc1c2C(=O)C(C)=C(N2CC2)C1=O (stereo unspecified) get here?
TRUE
